src = the supplement of paper PMC12669032

Tested on: Streptococcus salivarius
Assay: growth AUC relative to DMSO control (median of replicates) (fraction); higher = more growth (less inhibition), active = hit call of the paper
Settings: 20 µM; 24 h
Given measured growth AUC, output criterion met if it is greater than or equal to 1 and criterion not met if not.

N#Cc1nn(-c2c(Cl)cc(C(F)(F)F)cc2Cl)c(N)c1S(=O)C(F)(F)F (stereo not given)    criterion not met
CNC(=O)/C=C(\C)OP(=O)(OC)OC    criterion met
O=C(Nc1ccc(F)cc1F)c1cccnc1Oc1cccc(C(F)(F)F)c1    criterion not met
CNC(=O)Oc1cc(C)c(N(C)C)c(C)c1    criterion not met

Quick check, growth AUC >= 1? CS(=O)(=O)c1ccc(C(=O)C2C(=O)CCCC2=O)c([N+](=O)[O-])c1 criterion met

Confirm if growth AUC reported for the compound N#Cc1c(Cl)c(Cl)c(Cl)c(C#N)c1Cl is 1 or above. criterion not met
